target: recombinant IRAP (Homo sapiens); construct: expressed in transfected cells; host or cells: HEK 293T; assay: IRAP enzymatic assay (hydrolysis of Leu-MCA); assay type: biochemical; conditions: Table 2-8; substrate Leu-MCA; read-out: IC50 μ
measured-quantity: IC50

Asked: Check recombinant IRAP (Homo sapiens) data and give IC50 for COc1cc(C2C(C#N)=C(N)Oc3cc(C)oc(=O)c32)cc(Br)c1O (stereo not shown) [Compound 18] .
Given back: 40 µM

###

Molecular target: recombinant IRAP (Homo sapiens)
Construct: expressed in transfected cells; host or cells: HEK 293T
Experiment: IRAP enzymatic assay (hydrolysis of Leu-MCA)
Type: biochemical
Settings: Table 2-6; calculated from IC50, substrate Leu-MCA
Procedure: An in vitro enzymatic assay was used to initially assess IRAP inhibitory activity. Crude membranes were prepared from HEK 293T cells transfected with IRAP or empty vector, then solubilized in buffer consisting of 50 mM Tris-HCl, 1% Triton X-100, pH 7.4 at 4° C. under agitation over 5 h. […] Reactions proceeded at 37° C. for 30 min within a thermostatted FLEX station fluorescence microplate reader (Molecular Devices, Sunnyvale, Calif.). […]
measured-quantity: pKi
Please keep in mind that pKi is minus log10 of the molar concentration; only the number is needed.

Asked: Please give measured pKi of the following entry: CC(=O)NC1=C(C#N)C(c2ccc(C(=O)O)cc2)C(C(C)=O)=C(C)O1 (stereo not shown) [Compound 16]
Given back: 5.38

###

Target: recombinant IRAP (Homo sapiens, UniProt Q9UIQ6)
Construct: expressed in transfected cells; host or cells: HEK 293T
Sequence (Q9UIQ6 whole entry): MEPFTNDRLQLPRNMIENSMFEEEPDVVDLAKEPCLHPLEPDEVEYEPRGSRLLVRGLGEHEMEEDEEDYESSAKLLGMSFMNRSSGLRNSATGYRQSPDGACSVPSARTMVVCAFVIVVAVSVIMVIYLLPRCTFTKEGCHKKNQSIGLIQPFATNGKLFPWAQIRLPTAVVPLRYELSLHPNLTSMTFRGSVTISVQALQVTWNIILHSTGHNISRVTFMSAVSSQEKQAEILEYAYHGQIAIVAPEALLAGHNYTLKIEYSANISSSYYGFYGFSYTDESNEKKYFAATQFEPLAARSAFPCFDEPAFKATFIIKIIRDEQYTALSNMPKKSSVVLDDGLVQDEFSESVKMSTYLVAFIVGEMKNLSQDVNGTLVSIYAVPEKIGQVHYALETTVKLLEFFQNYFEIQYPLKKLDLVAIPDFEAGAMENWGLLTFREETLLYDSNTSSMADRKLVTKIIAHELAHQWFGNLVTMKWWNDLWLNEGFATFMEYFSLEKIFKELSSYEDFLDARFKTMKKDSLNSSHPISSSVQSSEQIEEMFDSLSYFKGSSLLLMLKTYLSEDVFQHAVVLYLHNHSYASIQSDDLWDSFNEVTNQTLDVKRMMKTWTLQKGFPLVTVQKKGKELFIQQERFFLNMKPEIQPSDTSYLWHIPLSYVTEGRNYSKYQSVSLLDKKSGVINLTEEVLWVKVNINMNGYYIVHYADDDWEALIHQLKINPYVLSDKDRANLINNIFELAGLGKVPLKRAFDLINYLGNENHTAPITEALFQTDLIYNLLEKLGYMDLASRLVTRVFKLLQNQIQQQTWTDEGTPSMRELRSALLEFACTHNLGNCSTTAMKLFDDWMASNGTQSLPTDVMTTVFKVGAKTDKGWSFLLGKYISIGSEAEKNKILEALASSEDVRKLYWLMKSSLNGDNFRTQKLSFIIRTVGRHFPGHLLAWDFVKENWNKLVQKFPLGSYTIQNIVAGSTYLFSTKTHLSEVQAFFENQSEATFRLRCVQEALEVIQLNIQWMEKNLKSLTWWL
Experiment: IRAP enzymatic assay (hydrolysis of Leu-MCA)
Assay type: biochemical
Conditions: Table 2-1; substrate Leu-MCA; read-out: IC50
Procedure: An in vitro enzymatic assay was used to initially assess IRAP inhibitory activity. Crude membranes were prepared from HEK 293T cells transfected with IRAP or empty vector, then solubilized in buffer consisting of 50 mM Tris-HCl, 1% Triton X-100, pH 7.4 at 4° C. under agitation over 5 h. […] Reactions proceeded at 37° C. for 30 min within a thermostatted FLEX station fluorescence microplate reader (Molecular Devices, Sunnyvale, Calif.). […]
pIC50: −log10 of the molar value.
measured-quantity: pIC50

Worked set:
compound | pIC50
CCOC(=O)C1=C(C)OC(N)=C(C#N)C1c1cccc(C(=O)O)c1 (stereo not drawn) [Compound 11m] | < 4.00
CCOC(=O)C1=C(C)OC(N)=C(C#N)C1c1cccnc1 (stereo not drawn) [Compound 11q] | < 4.30
CCOC(=O)C1=C(C)OC(N)=C(C#N)C1c1ccc(C(=O)O)cc1 (stereo not drawn) [Compound 11k] | 4.51

Asked: Lab note: recombinant IRAP (Homo sapiens, UniProt Q9UIQ6) assay, enter pIC50 for CCOC(=O)C1=C(C)OC(N)=C(C#N)C1c1ccnc2ccccc12 (stereo not drawn) [Compound 11u] here
Given back: < 4.00

Asked: Quote pIC50 with test system recombinant IRAP (Homo sapiens, UniProt Q9UIQ6) for CCOC(=O)C1=C(C)OC(N)=C(C#N)C1c1ccc(-c2ccccn2)cc1 (stereo not drawn) [Compound 11p]
Given back: < 4.00

Asked: Tell me its pIC50 on recombinant IRAP (Homo sapiens, UniProt Q9UIQ6): CCOC(=O)C1=C(C)OC(N)=C(C#N)C1c1ccc(O)c(OC)c1 (stereo not drawn) [Compound 11b]
Given back: 4.66

Asked: Provide pIC50, system recombinant IRAP (Homo sapiens, UniProt Q9UIQ6), entry CCOC(=O)C1=C(C)OC(N)=C(C#N)C1c1cc(C)c(OC(C)=O)c(C)c1 (stereo not drawn) [Compound 11o]
Given back: < 4.00

Reference for the values: patent US11306066B2
